# Study target: p110α-p85 complex (Homo sapiens, UniProt P42336)
# Sequence (P42336 whole entry): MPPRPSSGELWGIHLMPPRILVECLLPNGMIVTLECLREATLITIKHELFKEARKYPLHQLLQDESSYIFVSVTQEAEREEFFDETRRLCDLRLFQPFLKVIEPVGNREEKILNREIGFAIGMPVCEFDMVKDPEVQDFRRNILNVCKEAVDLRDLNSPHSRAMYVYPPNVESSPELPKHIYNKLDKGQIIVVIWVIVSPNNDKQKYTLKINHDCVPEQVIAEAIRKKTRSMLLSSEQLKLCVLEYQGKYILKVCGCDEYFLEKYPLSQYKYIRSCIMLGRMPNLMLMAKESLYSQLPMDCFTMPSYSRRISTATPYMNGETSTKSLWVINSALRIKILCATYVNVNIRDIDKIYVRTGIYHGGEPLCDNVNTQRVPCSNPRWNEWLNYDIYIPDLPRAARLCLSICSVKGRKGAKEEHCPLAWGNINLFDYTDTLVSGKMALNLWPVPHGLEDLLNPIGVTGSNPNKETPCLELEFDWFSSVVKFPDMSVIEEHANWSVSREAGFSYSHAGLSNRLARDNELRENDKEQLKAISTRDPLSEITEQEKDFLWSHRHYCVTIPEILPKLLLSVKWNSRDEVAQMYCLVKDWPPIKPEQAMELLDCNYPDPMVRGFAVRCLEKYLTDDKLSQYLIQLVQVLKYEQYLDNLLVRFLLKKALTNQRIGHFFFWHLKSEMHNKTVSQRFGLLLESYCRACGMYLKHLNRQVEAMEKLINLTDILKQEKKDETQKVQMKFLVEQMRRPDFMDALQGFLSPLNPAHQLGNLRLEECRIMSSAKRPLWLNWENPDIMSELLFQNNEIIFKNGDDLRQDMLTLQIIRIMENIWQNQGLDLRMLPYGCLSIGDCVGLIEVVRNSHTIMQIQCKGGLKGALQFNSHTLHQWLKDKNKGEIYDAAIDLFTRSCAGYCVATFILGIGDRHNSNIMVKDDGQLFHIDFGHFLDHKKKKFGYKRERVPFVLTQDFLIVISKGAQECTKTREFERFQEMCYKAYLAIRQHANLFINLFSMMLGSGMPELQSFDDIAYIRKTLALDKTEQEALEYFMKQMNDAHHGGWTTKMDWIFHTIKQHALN
# Sequence (P27986 whole entry partner): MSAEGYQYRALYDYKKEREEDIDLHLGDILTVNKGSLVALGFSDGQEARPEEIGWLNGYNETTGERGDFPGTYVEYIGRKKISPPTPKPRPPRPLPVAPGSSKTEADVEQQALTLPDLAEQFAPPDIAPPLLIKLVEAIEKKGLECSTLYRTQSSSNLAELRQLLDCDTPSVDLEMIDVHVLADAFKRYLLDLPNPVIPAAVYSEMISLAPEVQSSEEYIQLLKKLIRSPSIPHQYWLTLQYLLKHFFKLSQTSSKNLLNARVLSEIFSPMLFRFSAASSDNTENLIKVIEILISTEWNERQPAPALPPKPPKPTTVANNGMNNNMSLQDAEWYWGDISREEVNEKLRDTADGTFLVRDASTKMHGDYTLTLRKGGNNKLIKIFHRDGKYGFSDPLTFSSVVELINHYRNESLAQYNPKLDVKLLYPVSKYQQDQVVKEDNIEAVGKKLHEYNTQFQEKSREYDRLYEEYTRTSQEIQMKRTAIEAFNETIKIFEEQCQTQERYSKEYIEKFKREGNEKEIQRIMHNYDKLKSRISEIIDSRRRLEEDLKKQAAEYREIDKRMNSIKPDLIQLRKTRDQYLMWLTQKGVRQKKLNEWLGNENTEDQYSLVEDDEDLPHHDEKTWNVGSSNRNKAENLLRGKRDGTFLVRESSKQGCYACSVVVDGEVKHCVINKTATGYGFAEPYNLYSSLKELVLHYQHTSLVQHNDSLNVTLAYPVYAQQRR
# Test summary: PI3-kinase p110α-p85 complex lipid kinase assay
# Assay setup: read-out: IC50 PI3K 110a
Measurement kind: IC50 (nM)
Report the value in nM with no unit label.

Look up IC50 for this molecule: CC(=O)Nc1nc(C)c(-c2ccc(Cl)c(S(=O)(=O)NC(C)C)c2)s1 [PT46]
100

I am curious: what IC50 value has been reported for CC(=O)Nc1nc(C)c(-c2ccc(Cl)c(S(=O)(=O)NCCc3ccc(O)cc3)c2)s1 [PT47] ?
136

# get_value(readout='IC50', item= CC(=O)Nc1nc(C)c(-c2ccc(Cl)c(S(N)(=O)=O)c2)s1 [PT45] )
74
